Tested on: U-87 MG
Test: Cytotoxicity against human U-87 MG cells assessed as growth inhibition measured after 72 hrs by MTT assay
Format: functional, cell-based, U-87MG ATCC
PROPERTY_MEASURED: IC50 (µM)
Numbers only, in µM.

Some solved entries appear below for comparison.
MOLECULE | TARGET | IC50 [µM]
Oc1c(C(Nc2ccccn2)c2c(Cl)cccc2Cl)ccc2cccnc12 (stereo unspecified) | U-87 MG | 6.9
Cc1ccnc(NC(c2ccc(OCc3ccccc3)cc2)c2ccc3cccnc3c2O)c1 (stereo unspecified) | U-87 MG | 9.3

Hey, quick one: what's IC50 for each of these?
1. COc1cccc(C(c2ccc3cccnc3c2O)N2CCOCC2)c1OC (stereo unspecified)
2. Cc1cc(C)c(C(Nc2ccccn2)c2ccc3cccnc3c2O)c(C)c1 (stereo unspecified)

result:
[33, 10]

Hey, quick one: what's IC50 for each of these?
1. CCc1ccc(C(Nc2cc(C)ccn2)c2ccc3cccnc3c2O)cc1 (stereo unspecified)
2. Oc1c(C(Nc2ccccn2)c2ccccc2Cl)ccc2cccnc12 (stereo unspecified)

result:
8.9
9.4

----------
Molecular target: UniProtKB P07237
Test: Inhibition of recombinant human wild-type N-terminal His-tagged PDIA1 expressed in Escherichia coli strain BL21(DE3) at 10 uM using bovine insulin as substrate preincubated for 1 hr followed by substrate addition in presence of glutathione
Sequence (P07237 18-508 limits assumed): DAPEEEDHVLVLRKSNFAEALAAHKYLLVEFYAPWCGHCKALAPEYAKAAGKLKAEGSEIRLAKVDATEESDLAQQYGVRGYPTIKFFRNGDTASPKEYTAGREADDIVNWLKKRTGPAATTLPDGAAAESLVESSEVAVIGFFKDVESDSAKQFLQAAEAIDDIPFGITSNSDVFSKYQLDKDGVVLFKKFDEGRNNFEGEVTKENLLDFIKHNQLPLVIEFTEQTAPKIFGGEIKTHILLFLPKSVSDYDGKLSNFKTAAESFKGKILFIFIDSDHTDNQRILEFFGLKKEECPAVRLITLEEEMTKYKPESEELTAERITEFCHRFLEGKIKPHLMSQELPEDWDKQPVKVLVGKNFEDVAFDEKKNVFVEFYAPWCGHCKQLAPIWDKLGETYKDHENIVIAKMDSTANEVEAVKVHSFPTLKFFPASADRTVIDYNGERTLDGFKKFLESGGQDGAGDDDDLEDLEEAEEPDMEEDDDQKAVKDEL
The source made the active and inactive calls. The rule behind the calls is not given here.
PROPERTY_MEASURED: inhibition

Some solved entries appear below for comparison.
MOLECULE | inhibition
Oc1c(C(Nc2ccccn2)c2ccc(Cl)cc2)ccc2cccnc12 (stereo unspecified) | inactive
C#CC(=O)N(c1ccc(OC)cc1OC)C(C(=O)NCC(=O)OCC)c1cccs1 (stereo unspecified) | inactive
Oc1c(C(c2ccc(F)cc2)N2CCNCC2)ccc2cncnc12 (stereo unspecified) | 44%
CN(C)c1ccc(C(Nc2ncccn2)c2cc3c(cc2O)OCO3)cc1 (stereo unspecified) | 64%
N#Cc1cccc(/C=C/C(=O)c2ccc(O)cc2)c1 | inactive

Now consider the entry below.
query: Give inhibition (UniProtKB P07237) of the following molecule: COc1ccc(C(c2cc3c(cc2O)OCO3)N2CCOCC2)cc1OC (stereo unspecified)
result: inactive

----------
Target: Protein disulfide-isomerase (Homo sapiens, UniProt P07237)
Test: Inhibition of recombinant human wild-type N-terminal His-tagged PDIA1 expressed in Escherichia coli strain BL21(DE3) using bovine insulin as substrate preincubated for 1 hr followed by substrate addition
Sequence (P07237 whole entry): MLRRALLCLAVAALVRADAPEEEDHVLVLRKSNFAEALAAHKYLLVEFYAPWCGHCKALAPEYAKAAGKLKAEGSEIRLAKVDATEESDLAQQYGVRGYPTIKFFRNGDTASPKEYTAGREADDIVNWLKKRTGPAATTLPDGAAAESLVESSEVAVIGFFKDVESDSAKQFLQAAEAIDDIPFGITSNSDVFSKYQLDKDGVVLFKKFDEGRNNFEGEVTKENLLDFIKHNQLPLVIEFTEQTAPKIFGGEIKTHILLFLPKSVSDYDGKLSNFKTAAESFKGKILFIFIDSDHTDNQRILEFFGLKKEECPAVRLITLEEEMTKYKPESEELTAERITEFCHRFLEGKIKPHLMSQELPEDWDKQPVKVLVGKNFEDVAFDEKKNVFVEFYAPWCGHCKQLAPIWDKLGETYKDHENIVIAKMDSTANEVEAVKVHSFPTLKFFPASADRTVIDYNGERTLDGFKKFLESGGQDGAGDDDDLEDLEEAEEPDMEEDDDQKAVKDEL
Record form. Attribute: IC50. Fill in for each entry.

Hey, quick one: what's IC50 for each of these?
1. COc1ccc(C(c2cc3c(cc2O)OCO3)N2CCCC2)cc1 (stereo not given)
2. Oc1c(C(Nc2ccccn2)c2ccc(Cl)cc2)ccc2cccnc12 (stereo not given)
3. Oc1c(C(Nc2ccccn2)c2ccccc2Cl)ccc2cccnc12 (stereo not given)

result:
1520 nM
170 nM
500 nM

Hey, quick one: what's IC50 for each of these?
1. Oc1ccccc1C(c1cc2c(cc1O)OCO2)N1CCOCC1 (stereo not given)
2. Oc1c(C(c2ccc(F)cc2)N2CCCCC2)ccc2c1CCC2 (stereo not given)
3. Oc1c(C(c2ccc3c(c2)OC(F)(F)O3)N2CCCCC2)ccc2ccoc12 (stereo not given)
4. CC1=CC(C)=[N+]2C1=C(c1ccc(C(=O)NCCNC(=O)c3ccc(C(c4cc5c(cc4O)OCO5)N4CCCCC4)cc3)cc1)c1c(C)cc(C)n1[B-]2(F)F (stereo not given)
5. CN(C)c1ccc(C(c2cc3c(cc2O)OCO3)N2CCCCC2)cc1 (stereo not given)
6. CNC(=O)NC(c1ccc2c(c1)OCO2)c1cc2c(cc1O)OCO2 (stereo not given)
7. COc1ccccc1C(c1cc2c(cc1O)OCO2)N1CCOCC1 (stereo not given)

result:
1: 340 nM; 2: > 10000 nM; 3: < 200 nM; 4: 1370 nM; 5: 1270 nM; 6: > 40000 nM; 7: 330 nM

Hey, quick one: what's IC50 for each of these?
1. Oc1c(C(c2ccc(F)cc2)N2CCCCC2)ccc2cncnc12 (stereo not given)
2. Oc1c(C(c2ccc3c(c2)CCC3)N2CCCCC2)ccc2ccoc12 (stereo not given)

result:
1: 4860 nM; 2: 410 nM

----------
Target: Protein disulfide-isomerase (Homo sapiens)
Experiment: Binding affinity to recombinant human wild-type N-terminal His-tagged PDIA1 expressed in Escherichia coli strain BL21(DE3) assessed as change in melting temperature at 100 uM by ROX dye based thermal shift assay
PROPERTY_MEASURED: ΔTm (°C)
One number for each entry, in °C.

Some solved entries appear below for comparison.
COMPOUND | ΔTm / °C
N#Cc1cccc(/C=C/C(=O)c2ccc(O)cc2)c1 | 1.55
C#CC(=O)N(c1ccc(OC)cc1OC)C(C(=O)NCC(=O)OCC)c1cccs1 (centres undefined) | 0.18
COc1ccc(C(c2cc3c(cc2O)OCO3)N2CCOCC2)cc1OC (centres undefined) | -0.36

Now consider the entry below.
query: Form field: reported ΔTm of Oc1c(C(Nc2ccccn2)c2ccc(Cl)cc2)ccc2cccnc12 (centres undefined)
result: -0.05

----------
Record form. Attribute: pIC50. Fill in for each entry.
Tested on: U-87 MG
Assay: Cytotoxicity against human U-87 MG cells assessed as growth inhibition measured after 72 hrs by MTT assay
Format: functional, cell-based, U-87MG ATCC
Numbers only, as −log10 of the molar value.

Some solved entries appear below for comparison.
MOLECULE | pIC50
CCc1ccc(C(Nc2ccccn2)c2ccc3cccnc3c2O)cc1 (stereo unspecified) | 5.03
COc1cc(C(Nc2ccc(C)cn2)c2ccc3cccnc3c2O)cc(OC)c1O (stereo unspecified) | 5.13

Now consider the entry below.
query: Form field: reported pIC50 of COc1ccc(C(c2cc3c(cc2O)OCO3)N2CCCCC2)cc1OC (stereo unspecified)
result: 4.61

----------
Test system: U-87 MG
Experiment: Cytotoxicity against human U-87 MG cells assessed as growth inhibition measured after 72 hrs by MTT assay
Type: functional, cell-based, U-87MG ATCC
Record form. Attribute: IC50. Fill in for each entry.

Some solved entries appear below for comparison.
COMPOUND | RESULT
Oc1ccc(C(c2cc3c(cc2O)OCO3)N2CCNCC2)cc1 (configuration not stated) | > 30 µM
CN(C)c1ccc(C(c2cc3c(cc2O)OCO3)N2CCCCC2)cc1 (configuration not stated) | 24.7 µM
COc1ccc(C(c2cc3c(cc2O)OCO3)n2ccnc2)cc1 (configuration not stated) | > 10 µM
O=C(O)c1ccc(NC(c2ccccc2)c2ccc3cccnc3c2O)cc1 (configuration not stated) | > 10 µM
Cc1ccnc(NC(c2ccccc2)c2ccc3cccnc3c2O)c1 (configuration not stated) | > 10 µM
Cc1ccnc(NC(c2ccc3cccnc3c2O)c2c(Cl)cccc2Cl)c1 (configuration not stated) | 7.2 µM

Hey, quick one: what's IC50 for each of these?
1. Cc1ccc(C)c(C(Nc2ccccn2)c2ccc3cccnc3c2O)c1 (configuration not stated)
2. Cc1ccnc(NC(c2cc(C)ccc2C)c2ccc3cccnc3c2O)c1 (configuration not stated)

result:
13.8 µM
> 10 µM

Hey, quick one: what's IC50 for each of these?
1. COc1ccc(C(Nc2ncccn2)c2cc3c(cc2O)OCO3)cc1 (configuration not stated)
2. Oc1c(C(c2ccc(F)cc2)N2CCCCC2)ccc2cccnc12 (configuration not stated)
3. COc1ccccc1NC(c1ccccc1)c1ccc2cccnc2c1O (configuration not stated)
4. COc1cccc(C(Nc2ccccn2)c2ccc3cccnc3c2O)c1 (configuration not stated)
5. Oc1cccc(C(Nc2ccccn2)c2ccc3cccnc3c2O)c1Cl (configuration not stated)
6. Oc1cc2c(cc1C(c1ccc(F)cc1)N1CCCC1)OCO2 (configuration not stated)

result:
> 10 µM
37 µM
> 10 µM
11.9 µM
> 10 µM
> 30 µM

Hey, quick one: what's IC50 for each of these?
1. Oc1cc2c(cc1C(Nc1ncccn1)c1ccc(F)cc1)OCO2 (configuration not stated)
2. COc1ccc(C(c2cc3c(cc2O)OCO3)N2CCOCC2)cc1OC (configuration not stated)
3. Cc1ccnc(NC(c2ccc(C(F)(F)F)cc2)c2ccc3cccnc3c2O)c1 (configuration not stated)

result:
["> 10 µM", "18.3 µM", "2.1 µM"]

----------
System: U-87 MG
Test: Cytotoxicity against human U-87 MG cells assessed as growth inhibition measured after 72 hrs by MTT assay
Assay type: functional, cell-based, U-87MG ATCC
PROPERTY_MEASURED: IC50

COMPOUND | TARGET | RESULT
CNC(=O)NC(c1cc(OC)c(OC)c(OC)c1)c1cc2c(cc1O)OCO2 (stereo not drawn) | U-87 MG | > 10 µM

Hey, quick one: what's IC50 for each of these?
1. Cc1ccnc(NC(c2ccccc2Cl)c2ccc3cccnc3c2O)c1 (stereo not drawn)
2. COc1cc(C(Nc2ccccn2)c2cc3c(cc2O)OCO3)cc(OC)c1O (stereo not drawn)
3. CCOC(=O)c1ccccc1NC(c1ccccc1)c1ccc2cccnc2c1O (stereo not drawn)
4. Cc1ccnc(NC(c2ccc([N+](=O)[O-])cc2)c2ccc3cccnc3c2O)c1 (stereo not drawn)
5. COc1cc(C(c2cc3c(cc2O)OCO3)N2CCOCC2)ccc1O (stereo not drawn)
6. COc1ccccc1C(c1cc2c(cc1O)OCO2)N1CCOCC1 (stereo not drawn)
7. NC(=O)NC(c1ccc(O)cc1)c1cc2c(cc1O)OCO2 (stereo not drawn)
8. CN(C)c1ccc(C(c2cc3c(cc2O)OCO3)N2CCCC2)cc1 (stereo not drawn)

result:
1: 9.9 µM; 2: > 10 µM; 3: > 10 µM; 4: 3.4 µM; 5: 27.1 µM; 6: 27.7 µM; 7: > 10 µM; 8: > 30 µM

Hey, quick one: what's IC50 for each of these?
1. COc1cc(C(c2cc3c(cc2O)OCO3)N2CCCC2)cc(OC)c1OC (stereo not drawn)
2. COc1cccc(C(c2cc3c(cc2O)OCO3)N2CCCC2)c1O (stereo not drawn)
3. Oc1cc2c(cc1C(c1ccc3c(c1)OCO3)N1CCCC1)OCO2 (stereo not drawn)
4. COc1ccc(C(Nc2cc(C)ccn2)c2ccc3cccnc3c2O)cc1O (stereo not drawn)
5. COc1ccc(C(c2cc3c(cc2O)OCO3)N2CCCC2)cc1 (stereo not drawn)
6. Oc1cc2c(cc1C(c1ccc(F)cc1)N1CCOCC1)OCO2 (stereo not drawn)
7. Cc1ccnc(NC(c2ccc3cccnc3c2O)c2c(F)cccc2Cl)c1 (stereo not drawn)
8. Oc1cc2c(cc1C(Nc1ncccn1)c1ccc3c(c1)OCO3)OCO2 (stereo not drawn)

result:
1. 24.2 µM
2. > 10 µM
3. > 30 µM
4. > 10 µM
5. 22.6 µM
6. > 30 µM
7. 20.6 µM
8. > 10 µM

Hey, quick one: what's IC50 for each of these?
1. COc1cccc(C(Nc2ncccn2)c2cc3c(cc2O)OCO3)c1O (stereo not drawn)
2. Oc1cc2c(cc1C(c1ccc3c(c1)OCO3)N1CCCCC1)OCO2 (stereo not drawn)
3. Oc1c(C(Nc2ccccn2)c2ccc(Cl)cc2)ccc2cccnc12 (stereo not drawn)
4. O=[N+]([O-])c1ccc(NC(c2ccccc2)c2ccc3cccnc3c2O)cc1 (stereo not drawn)

result:
1: > 10 µM; 2: > 10 µM; 3: 10.6 µM; 4: > 10 µM

Hey, quick one: what's IC50 for each of these?
1. Oc1cc2c(cc1C(c1ccc(F)cc1)n1ccnc1)OCO2 (stereo not drawn)
2. COc1cc(C(c2cc3c(cc2O)OCO3)N2CCCCC2)cc(OC)c1OC (stereo not drawn)

result:
1. > 10 µM
2. > 10 µM
